Tested on: PI(4,5)P2 liposomes
Method description: Yeast proteome chip probed with PI(4,5)P2 liposomes
Protocol conditions: liposome binding signal on yeast proteome chip, Cy3-streptavidin detection

Molecule: BUD32: yeast GST-HisX6 fusion protein on proteome chip (protein, UniProt P53323 1-261, looked up, GST-His6 fusion tag, yeast GST-HisX6 fusion protein on proteome chip) EKC/KEOPS complex subunit …: MTQEFIDKVSSYLTPDVDIAPISQGAEAIVFTTTTHPYLPRAKDSHQKYIIKYRPPKRYRHPQIDQALTKHRTLNESRLLAKLYLIPGLCVPQLIACDPYNGFIWLEFLGEDLPGGHGFSNLKNFLWMHDQDPYSDLVATTLRKVGRQIGLLHWNDYCHGDLTSSNIVLVRDGARWTPHLIDFGLGSVSNLVEDKGVDLYVLERAILSTHSKHAEKYNAWIMEGFEEVYREQGAKGAKKLKEVTKRFEEVRLRGRKRSMLG
PI(4, 5)P2: 282.63
//
Molecule: ARP10: yeast GST-HisX6 fusion protein on proteome chip (protein, UniProt Q04549 1-284, looked up, GST-HisX6 tag, yeast GST-HisX6 fusion protein on proteome chip) Actin-like protein ARP10: MSNTIVIVYLGANRIEIGRSADACPQEIIAWKTGSINEKNREELKKIFEHYFQICNILGNREVQVLILEDIFISVVEKRIICSILFKEFDCAHVSFVPRAIVHCLSCNTRNAIVIDIGTNYTTCVPIFDLRPLQQFIKYSKRGKRQVESRIPLPGSLYMPIFFDEEYNSKNCEVDETPVINLVKNIVESLPIDLRRPLRENIIIVNIEEAYETVIRNLFKLKMDTSKIQFPKNYWQAGSACAKILLHYKGSNIVGIERDEFYNNPHIAPDWFDYYFRTGVKRLQ
PI(4, 5)P2: 32.01
